Target: GST-Ndr (Homo sapiens, UniProt Q15208)
Construct: made in house
Sequence (Q15208 whole entry): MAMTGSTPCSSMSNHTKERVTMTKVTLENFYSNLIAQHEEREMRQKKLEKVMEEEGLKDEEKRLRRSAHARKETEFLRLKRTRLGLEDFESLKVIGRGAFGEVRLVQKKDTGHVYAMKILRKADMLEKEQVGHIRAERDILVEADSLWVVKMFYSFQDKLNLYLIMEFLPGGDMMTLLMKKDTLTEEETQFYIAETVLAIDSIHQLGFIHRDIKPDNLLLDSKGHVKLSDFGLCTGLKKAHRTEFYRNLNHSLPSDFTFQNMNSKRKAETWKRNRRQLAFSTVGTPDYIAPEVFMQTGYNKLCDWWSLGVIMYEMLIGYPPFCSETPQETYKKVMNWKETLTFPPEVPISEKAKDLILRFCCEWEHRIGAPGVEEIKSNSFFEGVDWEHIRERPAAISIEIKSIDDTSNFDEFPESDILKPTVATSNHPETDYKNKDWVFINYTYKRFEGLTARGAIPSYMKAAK
Assay: Ndr peptide substrate phosphorylation assay
Assay type: biochemical
Settings: 0.5 mg/ml peptide, 3 h at 30° C., KKRNRRLSVA = 100%
Method: When incubated in vitro with Mg-ATP, Ndr incorpora tes phosphate by an intramolecular autophosphorylation mechanism (Millward, T. A., et al., (1995) Proc. Natl. Acad. Sci. USA 92, 5022-5026). […] To develop a convenient in vitro kinase assay for Ndr, an assembled library of synthetic peptides is screened for potential Ndr substrates. […]
Result Type: Relative Ndr Activity

[[record]]
input_sequence = "AARNRTLSVA [SEQ. ID. No. 7]"
measured_target = "GST-Ndr (Homo sapiens, UniProt Q15208)"
endpoint_value = "0%"

[[record]]
input_sequence = "KKRNARLSVA [SEQ. ID. No. 4]"
measured_target = "GST-Ndr (Homo sapiens, UniProt Q15208)"
endpoint_value = "15%"

[[record]]
input_sequence = "KKRNRTLSPA [SEQ. ID. No. 10]"
measured_target = "GST-Ndr (Homo sapiens, UniProt Q15208)"
endpoint_value = "0%"

[[record]]
input_sequence = "KKRNRTLSVA [SEQ. ID. No. 6]"
measured_target = "GST-Ndr (Homo sapiens, UniProt Q15208)"
endpoint_value = "60%"

[[record]]
input_sequence = "KKRNRRLSVA [SEQ. ID. No. 1]"
measured_target = "GST-Ndr (Homo sapiens, UniProt Q15208)"
endpoint_value = "100%"

[[record]]
input_sequence = "KARNRRLSVA (LARNRRLSVA) [SEQ. ID. No. 2]"
measured_target = "GST-Ndr (Homo sapiens, UniProt Q15208)"
endpoint_value = "39%"

[[record]]
input_sequence = "KKLNRRLSVA [SEQ. ID. No. 3]"
measured_target = "GST-Ndr (Homo sapiens, UniProt Q15208)"
endpoint_value = "18%"

[[record]]
input_sequence = "KKRNRALSVA [SEQ. ID. No. 5]"
measured_target = "GST-Ndr (Homo sapiens, UniProt Q15208)"
endpoint_value = "30%"

[[record]]
input_sequence = "KKRNRTLSV [SEQ. ID. No. 8]"
measured_target = "GST-Ndr (Homo sapiens, UniProt Q15208)"
endpoint_value = "24%"

[[record]]
input_sequence = "KKRNRTLTV [SEQ. ID. No. 9]"
measured_target = "GST-Ndr (Homo sapiens, UniProt Q15208)"
endpoint_value = "0%"

